This section presents sequences with their documented apparent Kd values.
Tested on: MS2 coat protein
ASSAY COMMENT: apparent Kd, MS2 coat protein; higher = weaker binding; RNA-MaP array
DETAILS: designed as: OFF switch for flavin mononucleotide; no ligand
# output: bare number, implied unit nM

Please review the entries below; each comes with its answer.
> print(dat)
                               sequence.code     system.tested  measurement.label  data.value
 1  GUCCACGUCCAAGGAUAUAAUACGAUACAUGAGGAUCACCCAUGUAAGGAGUGUAGAGUACGAUGUUAGAAGGUGGCAUUGCAG  MS2 coat protein        apparent Kd        11.9
 2  GGACGUGGGCAGGAUAUGCGAAUUGAUUGAGCGGCAGAAGGGCCUACAUGAGGAUCACCCAUGUAGAUGCUUAC  MS2 coat protein        apparent Kd         5.4
 3  GAGUGGUAAGGAUAUAAUACGAAUACGGUGAAACCCGGCGUUUAGAAGGUACAUGAGGAUCACCCAUGUGAUUA  MS2 coat protein        apparent Kd        13.2
 4  ACAUGAGGAUCACCCAUGUGGUCGGCUAUCUACCCAAUGGGCGAGGAUAUCGAGGCAAGAUAAUUCGAGAAGGCGCGUAAGAUA  MS2 coat protein        apparent Kd         101
 5  UCACUACAGUAGAAGGUAGGUACAUGAGGAUCACCCAUGUGGUAGGGAGAUUUACACUGUUUCGCUAAGGAUAUACUGGCCAAU  MS2 coat protein        apparent Kd         207
 6  GAGAGGAGGGAGAAGGAGAUAGUCUUCGGCAAUCUAGGAUAUCCACGUAGGGAAUCUCACAUGAGGAUCACCCAUGUUCAGCCG  MS2 coat protein        apparent Kd        34.8
 7  AGAAAUGUAUUAGGAUAUUGGCGCGUAUUACGACAAGAAGGAAUACAUGAGGAUCACCCAUGUAACCCGCUCCGCGGUCCAUGG  MS2 coat protein        apparent Kd         101
 8  AGUAAAAGAGGAUAUACAUGAGGAUCACCCAUGUUGGCGCAGACAAUCGAUGCAUCGAGUAGAAGGCUUUCAAU  MS2 coat protein        apparent Kd        21.3
 9  UCGAUAAGAGGAUAUACGUGAUAGUUCUCCUCCCUAUGACUACAUGAGGAUCACCCAUGUAGAAGGCUUAACGG  MS2 coat protein        apparent Kd        6.31
10  AGAAUGUCAGGAUAUACUCGCUAUGUCGCCAAGUCACGCCGACAUGAGGAUCACCCAUGUAGAAGGGACAAGUA  MS2 coat protein        apparent Kd        12.9

Request: For MS2 coat protein, provide apparent Kd of CGGUUACUAGGAUAUACAUGAGGAUCACCCAUGUGACCUCCCGUCACGCGUGUACUGGGUAGAAGGAGUCAGGU please.
Result: 24.8

Request: Continue with CUGACGUCAGGAUAUGCUAAUAAACAACAUAAAAGACAAGUGCAGAAGGGACAUGAGGAUCACCCAUGUGAAAA
Result: 14.6

Request: // repeat for UGUAUCUCGCAGAAGGCAGGUUAAGCAACAAACUGAGGAUAUGCGUAUACAUGAGGAUCACCCAUGUUCACUGAUCGCAAAUUC and report
Result: 14.8

Request: Likewise for GUAAAACGGAAGAAGGCGCGGAGUACAGGGUAAAAUCAGGUCACAUGAGGAUCACCCAUGUGGAGCGAGGAUAUUCAUAAGGUA ?
Result: 24.7

Request: Quick one: CUGGUUGUCAAAGGAUAUAAACGAUCACAUGAGGAUCACCCAUGUCUCCCUAUGUUAAUAAGCGCUUAGAAGGUUGAGCCAGCC
Result: 31.3

Request: // next record GAUAGUCCCAAGGAUAUGUGGGUUUUAUCUUCUACAGAAGGUGGGACAUGAGGAUCACCCAUGUUGCGGCGAGG
Result: 26.8

Request: // next record GAACAGCGGCAGAAGGACUCGCGAUUGUGUACGAACAUGAGGAUCACCCAUGUGUGAGUAUUCCAGUAGGAUAUGCGUUCUAUA
Result: 17.2

Request: GUGAAACAUGAGGAUCACCCAUGUUAGGAUAUAACGCGACGGCAGGGAUCUGCGCUACUUAGAAGGAACGGGAC , same question.
Result: 11.5

* * *

System: MS2 coat protein
ASSAY COMMENT: apparent Kd, MS2 coat protein; higher = weaker binding; RNA-MaP array
DETAILS: ligand present: flavin mononucleotide; designed as: OFF switch for flavin mononucleotide
Param threshold (60 nM) applies to apparent Kd; output true (1) when value >= threshold, false (0) when value < threshold.

> print(dat)
                              sequence.code  class.assignment
1  GUGGCGUAAGGAUAUCGUGGGAAGUGAUGAACGCUCUACUUCGAGAAGGUACAUGAGGAUCACCCAUGUGAGGG          true (1)
2  GUCAGGUGGACAGGAUAUCGUGCUCGUAGACAUGAGGAUCACCCAUGUUCGCUCUUCUUCGGCAUCGAGAAGGGUCUCCAAUCU         false (0)
3  GUAAAACGGAAGAAGGCGCGGAGUACAGGGUAAAAUCAGGUCACAUGAGGAUCACCCAUGUGGAGCGAGGAUAUUCAUAAGGUA          true (1)

Request: Determine whether this sequence has apparent Kd no lower than 60 nM: GAGUGGUAAGGAUAUAAUACGAAUACGGUGAAACCCGGCGUUUAGAAGGUACAUGAGGAUCACCCAUGUGAUUA
Result: false (0)

Request: Next up: AACAUGAGGAUCACCCAUGUAGGUACUUCUCGACGGCCUACAAGAAGGUGUUGUAAAGUCAAGAACAAGGAUAUUGUGAUGGCU
Result: true (1)

Request: Please answer likewise for UGUCAGGUCCAUAACAUGAGGAUCACCCAUGUAAGGCAUGAGCAGGAUAUCAAAAGUCGUAAGACAGAGAAGGGCUAAAUGACC
Result: false (0)

Request: Continue with CUACUCAUAGGAUAUGAAGCCCGAGACAUGAGGAUCACCCAUGUAUGAUCUACUGUGCGCUCAGAAGGAUGCAGUA
Result: false (0)

* * *

Listed next: entries and their corresponding apparent Kd.
System: MS2 coat protein
ASSAY COMMENT: apparent Kd, MS2 coat protein; higher = weaker binding; RNA-MaP array; FMN 200 µM where present
DETAILS: ligand present: flavin mononucleotide; designed as: OFF switch for flavin mononucleotide
Reply with just the number (in nM).

Example entries begin here.
> print(dat)
                              sequence.code  data.value
1  AGUCUCACUGAAGGAUAUGCAGGGUUUCAAGGGUUUCCUGCGACAUGAGGAUCACCCAUGUAAAUGCAGAAGGUCAGGACCCAA        32.8
2  GUCCUCUCUGAGGAUAUUAUCUGGUUCGAUUGAUAAGAAGGCAGUACAUGAGGAUCACCCAUGUGGGUCGUCUG        83.7
3  CUGUUCUGUGUAGGAUAUGCAUAUUCCCAUUAUGCAGAAGGACAUGAGGAUCACCCAUGUAUGUUAUUAUCAUGUGUUACAUGC         146

Would you kindly look at the next entry?
Request: Suppose we examine the sequence GCGUUGAACGAGAAGGCCACUACAUGAGGAUCACCCAUGUCGUGGAGUAUUGGAGGAUAUCGAUCGGCGUCUCAUGAGGACAUA ; what apparent Kd value has been reported?
Result: 5.62

* * *

Tested on: MS2 coat protein
ASSAY COMMENT: apparent Kd, MS2 coat protein; higher = weaker binding; RNA-MaP array; tryptophan 2.4 mM where present
DETAILS: ligand present: tryptophan; designed as: ON switch for tryptophan
Entries and their apparent Kd values follow.
Field: numeric (nM). Do not append units.

Request: Tell me the measured apparent Kd of AUUGUGAAGUCGGCCGCCACUGCAUAGUUUAACCUCUUUUAACAUGAGGAUCACCCAUGUAAUGACAGGACCGGGACAAUAGUAA , please.
Result: 59.9

Request: Lookup UGUACCAUGUCGGCCGCCACUCAUGAUAAACAUGAGGAUCACCCAUGUGGCGUCAAAGACGCUAUGAGGACCGGGACAUGGUACU
Result: 10.6

Request: AUUCAUGGAAACAUGACAUAGGGAUCUAUCCGAGGACCGGUACGGCCGCCACUCGCGUGGAGGCACAUGAGGAUCACCCAUGUUA , same question.
Result: 432

Request: Cool, now UUCUACGACGAUCUGGGAAAACCAGAUCGACGAGGACCGGUACGGCCGCCACUCGUGUUUCUUUAACAUGAGGAUCACCCAUGUA
Result: 14.5

Request: Again, but for CUGUACAUCUCGGCCGCCACUGCUGACAUGGGAGUCACCCAUGUCCACAUGAGGAUCACCCAUGUCAGGACCGGGAGGUGUGCAG
Result: 255

Request: // repeat for GGUUACUCUACGGCCGCCACUGAUUAUUUAUAAUCCUGUACAUAAACAUGAGGAUCACCCAUGUACAGGACCGGGUAGUGUAACC and report
Result: 29.4
